- test-description: thallium flux activation in parental CHO cells, counter-screen for KCNQ1 potentiator project (AID 493006);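 on activation: fluorescence ratio of max minus min over baseline after K+ and Tl+ depolarization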
- condition-context: parental CHO-K1 cells, FluxOR thallium flux, at 10 µM
Active and inactive are the calls of the source.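 How the source made its calls: active means duplicate-averaged activation above buffer control mean plus 5 SD of those controls; inactive means the rest.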
Labels: active, inactive

mol-smiles: CCCCn1c(NS(=O)(=O)c2ccc(C)cc2)c(S(=O)(=O)c2ccccc2)c2nc3ccccc3nc21
label-value: inactive
--
mol-smiles: Cc1ccc2nsnc2c1S(=O)(=O)Nc1cccc2nsnc12
label-value: active
--
mol-smiles: CN(C(=O)c1ccco1)c1nnc(-c2ccc(F)cc2)s1
label-value: inactive
--
mol-smiles: Cc1nn(Cc2ccc(Cl)cc2)c(C)c1NC(=O)c1cc(-c2ccco2)on1
label-value: inactive
--
mol-smiles: CCN(CC)CCn1c(OC)cc(=O)[nH]c1=O
label-value: inactive
--
mol-smiles: O=C(/C=C/c1ccco1)NC(=S)Nc1ccccc1O
label-value: inactive

---

- test-description: thallium flux activation in parental CHO cells, counter-screen for KCNQ1 potentiator project (AID 493006);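 on activation: fluorescence ratio of max minus min over baseline after K+ and Tl+ depolarization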
- condition-context: parental CHO-K1 cells, FluxOR thallium flux, at 10 µM; stronger effect = higher value
Active and inactive are the calls of the source.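 How the source made its calls: active means duplicate-averaged activation above buffer control mean plus 5 SD of those controls; inactive means the rest.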
quantity-measured: activation

compound: CCN(CC)CCCNC(=O)c1c(O)c2cc(F)cc3c2n(c1=O)C(C)CC3 (stereo not given)
experimental-result: inactive
//
compound: O=C1C=C(NCc2ccccc2)c2ccccc2C1=O
experimental-result: 140% (active)
//
compound: O=C(NCc1ccccc1)C(=O)NCC1CCCN1S(=O)(=O)c1cccs1 (stereo not given)
experimental-result: inactive
//
compound: CCOC(=O)Cc1csc(NC(=S)NC(=O)c2ccc(F)cc2)n1
experimental-result: inactive
//
compound: CCOC(=O)/C(C)=N/NC(=O)c1cccc([N+](=O)[O-])c1
experimental-result: 170% (active)
//
compound: S=c1[nH]nc(COc2ccccc2)n1/N=C/c1ccc(Cl)cc1Cl
experimental-result: inactive
//
compound: CC(=O)c1cccc(NC(=S)NC(=O)c2ccc(Cl)cc2)c1
experimental-result: inactive
//
compound: COc1ccc(N2CCN(C(=S)NC(=O)c3cccs3)CC2)c([N+](=O)[O-])c1
experimental-result: 139% (active)
//
compound: S=c1nc(-c2ccccc2)[nH]c2ccccc12
experimental-result: 316% (active)
//
compound: CCOc1ccc(NC(=O)CN(C)C(=O)C2CCN(c3ncnc4sc(C)c(C)c34)CC2)cc1OCC
experimental-result: inactive
//
compound: CCOC(=O)c1[nH]c(C=O)c(C(=O)OCC)c1C
experimental-result: inactive
//
compound: Cc1ccc(-n2ncc(C(=O)Nc3cc(Cl)cc(Cl)c3)c2C2CCNCC2)cc1C
experimental-result: inactive
//
compound: CCOc1ccc(-c2c(=O)n(O)c3ccccc3[n+]2[O-])cc1
experimental-result: 224% (active)
//
compound: CCN1C(=O)/C(=C\C(=O)c2cccs2)c2cc(Br)ccc21
experimental-result: inactive
//
compound: CCCCOC(=O)Nc1ccccc1C(N)=O
experimental-result: inactive
//
compound: Cc1cccc(NC(=O)CSc2ccc3nnc(-c4cccnc4)n3n2)c1
experimental-result: inactive
//
compound: O=C(NCc1ccc(F)cc1)C1CCC(CNS(=O)(=O)c2ccccc2)CC1 (stereo not given)
experimental-result: inactive
//
compound: COc1ccc(S(=O)(=O)N2CCCC(C(=O)O)C2)cc1 (stereo not given)
experimental-result: inactive
//
compound: N#Cc1ccc2ccn(CC(=O)NCc3ccccc3)c2c1
experimental-result: inactive
//
compound: CCOC(=O)c1c(C)[nH]c(=S)c(C#N)c1-c1ccc(Cl)cc1
experimental-result: 150% (active)
